system: MCF7; assay: Antiproliferative activity against human MCF7 cells assessed as cell viability at 200 uM after 72 hrs by MTT assay; type: functional; conditions: MCF7, 72 h, read-out: Activity
# label = 1 if viability at 200 µM < 40% else 0

Worked set:
• CC(Cn1cnc2c1c(=O)n(C)c(=O)n2C)OC(=O)Sc1ccccc1 (stereo not given) = 0
• CC(Cn1cnc2c1c(=O)n(C)c(=O)n2C)OC(=O)C1c2ccccc2-c2ccccc21 (stereo not given) = 1

Query string: Is viability at 200 µM of CC(Cn1cnc2c1c(=O)n(C)c(=O)n2C)OC(=O)CC(=O)c1ccc(F)cc1 (stereo not given) strictly below 40%?
Result string: 0

Query string: Queued: CC(Cn1cnc2c1c(=O)n(C)c(=O)n2C)OC(=O)Nc1ccccc1 (stereo not given)
Result string: 0

Query string: And CC(Cn1cnc2c1c(=O)n(C)c(=O)n2C)OC(=O)N1c2ccccc2C=Cc2ccccc21 (stereo not given) ?
Result string: 0
